Source listed as the RNAGym collection of RNA variant scans (doi:10.1002/anie.201605470).

B1: Osa-1-4 twister ribozyme (parent)
chain: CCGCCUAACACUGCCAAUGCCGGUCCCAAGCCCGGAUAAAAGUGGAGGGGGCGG

variants of: B1; test: self-cleavage, relative activity (ratio to wild type); higher = more cleavage; co-transcriptional
Let's look at some variants and their measured self-cleavage.

Asked: Bench note: what self-cleavage did C31G G42A show?
Given back: 0.1

Asked: Could you share which self-cleavage value was measured for C52G G51C ?
Given back: 0.41

Asked: Can you look up the measured self-cleavage of A40G G44U for me?
Given back: 0.38

Asked: For the variant A41C G13U , what self-cleavage is on record?
Given back: 0.04
